tested on: cysteine-containing SecR(G264A,I268A) constructs; assay: Cysteine trapping with SecR(G264A,I268A) cysteine constructs, intact COS-1 cells; type: binding, human; conditions: N291C, ECL2; mean ± S.E.M., n = 3-5
No end group written: not given here.
PROPERTY_LABEL: Intraloop labeling

SUBSTANCE	EXPERIMENTAL_SYSTEM	EXPERIMENTAL_RESULT
Cys^2-[Tyr^10]secretin(1-27) (HCDGTFTSEYSRLREGARLQRLLQGLV; not fully specified; ends and bridges not checked; also: radioiodinated; UniProt P09683 28-54, looked up, variant S2C L10Y) [Cys^2-Sec, cysteine-containing secretin agonist probe, radioiodinated for cysteine trapping]	cysteine-containing SecR(G264A,I268A) constructs	< 1 percentage

* * *

Here, each record is paired with measured Overall labeling data.
system: cysteine-containing SecR(G264A,I268A) constructs; experiment: Cysteine trapping with SecR(G264A,I268A) cysteine constructs, intact COS-1 cells; format: binding, human; settings: L374C, ECL3; mean ± S.E.M., n = 3-5; Cys5, Cys6, Cys7 significant (P < 0.001)
No end group written: not given here.
PROPERTY_LABEL: Overall labeling (percentage)

SUBSTANCE	PROPERTY_LABEL	EXPERIMENTAL_RESULT
Cys^5-[Tyr^10]secretin(1-27) (HSDGCFTSEYSRLREGARLQRLLQGLV; not fully specified; ends and bridges not checked; also: radioiodinated; UniProt P09683 28-54, looked up, variant T5C L10Y) [Cys^5-Sec, cysteine-containing secretin agonist probe, radioiodinated for cysteine trapping]	Overall labeling	69.8
Cys^6-[Tyr^10]secretin(1-27) (HSDGTCTSEYSRLREGARLQRLLQGLV; not fully specified; ends and bridges not checked; also: radioiodinated; UniProt P09683 28-54, looked up, variant F6C L10Y) [Cys^6-Sec, cysteine-containing secretin agonist probe, radioiodinated for cysteine trapping]	Overall labeling	78.8
Cys^2-[Tyr^10]secretin(1-27) (HCDGTFTSEYSRLREGARLQRLLQGLV; not fully specified; ends and bridges not checked; also: radioiodinated; UniProt P09683 28-54, looked up, variant S2C L10Y) [Cys^2-Sec, cysteine-containing secretin agonist probe, radioiodinated for cysteine trapping]	Overall labeling	29.1
Cys^7-[Tyr^10]secretin(1-27) (HSDGTFCSEYSRLREGARLQRLLQGLV; not fully specified; ends and bridges not checked; also: radioiodinated; UniProt P09683 28-54, looked up, variant T7C L10Y) [Cys^7-Sec, cysteine-containing secretin agonist probe, radioiodinated for cysteine trapping]	Overall labeling	88.6

* * *

tested on: cysteine-containing SecR(G264A,I268A) constructs; assay: Cysteine trapping with SecR(G264A,I268A) cysteine constructs, intact COS-1 cells; format: binding, human; conditions: Q369C, ECL3; mean ± S.E.M., n = 3-5
No end group written: not given here.

SUBSTANCE	Intraloop labeling
Cys^2-[Tyr^10]secretin(1-27) (HCDGTFTSEYSRLREGARLQRLLQGLV; not fully specified; ends and bridges not checked; also: radioiodinated; UniProt P09683 28-54, looked up, variant S2C L10Y) [Cys^2-Sec, cysteine-containing secretin agonist probe, radioiodinated for cysteine trapping]	< 1 percentage

* * *

test system: cysteine-containing SecR(G264A,I268A) constructs; assay: Cysteine trapping with SecR(G264A,I268A) cysteine constructs, intact COS-1 cells; format: binding, human; conditions: Q369C, ECL3; mean ± S.E.M., n = 3-5
No end group written: not given here.

SUBSTANCE	EXPERIMENTAL_SYSTEM	Intraloop labeling
Cys^5-[Tyr^10]secretin(1-27) (HSDGCFTSEYSRLREGARLQRLLQGLV; not fully specified; ends and bridges not checked; also: radioiodinated; UniProt P09683 28-54, looked up, variant T5C L10Y) [Cys^5-Sec, cysteine-containing secretin agonist probe, radioiodinated for cysteine trapping]	cysteine-containing SecR(G264A,I268A) constructs	21.6±13.4 percentage
Cys^6-[Tyr^10]secretin(1-27) (HSDGTCTSEYSRLREGARLQRLLQGLV; not fully specified; ends and bridges not checked; also: radioiodinated; UniProt P09683 28-54, looked up, variant F6C L10Y) [Cys^6-Sec, cysteine-containing secretin agonist probe, radioiodinated for cysteine trapping]	cysteine-containing SecR(G264A,I268A) constructs	13.0±12.7 percentage
Cys^7-[Tyr^10]secretin(1-27) (HSDGTFCSEYSRLREGARLQRLLQGLV; not fully specified; ends and bridges not checked; also: radioiodinated; UniProt P09683 28-54, looked up, variant T7C L10Y) [Cys^7-Sec, cysteine-containing secretin agonist probe, radioiodinated for cysteine trapping]	cysteine-containing SecR(G264A,I268A) constructs	< 1 percentage
